Test system: NK-YS (IL-2 2.5 ng/mL)
protocol.text: percent inhibition of viability; higher = more inhibition
condition.parameters: 72 h; 0.1 nM

molecule	percent inhibition of viability / %
Cc1cc(Nc2nc(N[C@@H](C)c3ncc(F)cn3)ncc2Cl)[nH]n1 [AZD1480] (max concentration tested 1000 nM)	0.27
NC(=O)c1cccc(-c2cccc(OC(=O)NC3CCCCC3)c2)c1 [URB597] (max concentration tested 1000 nM)	-1.3
Cn1c(Nc2ccc(C(F)(F)F)cc2)nc2cc(Oc3ccnc(-c4ncc(C(F)(F)F)[nH]4)c3)ccc21 [RAF265] (max concentration tested 1000 nM)	-5.8
CCN(CC)CCNC(=O)c1c(C)[nH]c(/C=C2\C(=O)Nc3ccc(F)cc32)c1C [Sunitinib] (max concentration tested 1000 nM)	-7.84
Cc1cccc(-c2nn3c(c2-c2ccnc4ccc(C(N)=O)cc24)CCC3)n1 [Galunisertib] (max concentration tested 1000 nM)	-4.82

====

Test system: normal NK cells expanded with K562-aAPC
protocol.text: percent inhibition of viability; higher = more inhibition
condition.parameters: 72 h; IL-2 2.5 ng/mL; 1 nM
readout.kind: percent inhibition of viability (%)

molecule	readout.kind	unit.abbreviation	measured.result
CS(=O)(=O)N1CCN(Cc2cc3nc(-c4cccc5[nH]ncc45)nc(N4CCOCC4)c3s2)CC1 [Pictilisib] (max concentration tested 10000 nM)	percent inhibition of viability	%	2.02
COc1cc([C@@H]2c3cc4c(cc3[C@@H](O[C@@H]3O[C@@H]5CO[C@@H](C)O[C@H]5[C@H](O)[C@H]3O)[C@H]3COC(=O)[C@H]23)OCO4)cc(OC)c1O [Etoposide] (max concentration tested 10000 nM)	percent inhibition of viability	%	-5.25
CC(C)N(C[C@H]1O[C@@H](n2cnc3c(N)ncnc32)[C@H](O)[C@@H]1O)[C@H]1C[C@@H](CCc2nc3cc(C(C)(C)C)ccc3[nH]2)C1 [Pinometostat] (max concentration tested 1000 nM)	percent inhibition of viability	%	-1.47
N#Cc1ccc2[nH]c(O)c(-c3ccc(CN4CCOCC4)cn3)c2c1 [AZD-1080] (max concentration tested 10000 nM)	percent inhibition of viability	%	-8.89
C[C@]12CC[C@@H]3c4ccc(O)cc4C[C@@H](CCCCCCCCC[S+]([O-])CCCC(F)(F)C(F)(F)F)[C@H]3[C@@H]1CC[C@@H]2O (stereo partly specified) [Fulvestrant] (max concentration tested 1000 nM)	percent inhibition of viability	%	-10.5
CO[C@H]1C[C@@H]2CC[C@@H](C)[C@@](O)(O2)C(=O)C(=O)N2CCCC[C@H]2C(=O)O[C@H]([C@H](C)C[C@@H]2CC[C@@H](OCCO)[C@H](OC)C2)CC(=O)[C@H](C)/C=C(\C)[C@@H](O)[C@@H](OC)C(=O)[C@H](C)C[C@H](C)/C=C/C=C/C=C/1C [Everolimus] (max concentration tested 100 nM)	percent inhibition of viability	%	-2.52

====

Tested on: NKL (IL-2 2.5 ng/mL)
protocol.text: drug sensitivity score (DSS) (DSS units); higher = more sensitive; extreme values may be limits of the assay
condition.parameters: 72 h

compound	drug sensitivity score
Clc1ccc(Nc2nnc(Cc3ccncc3)c3ccccc23)cc1 [Vatalanib] (max concentration tested 10000 nM)	2.05
C[C@@H]1CN(CC(=O)Nc2ccc3c(c2)Cc2cccc(-c4cc(=O)cc(N5CCOCC5)o4)c2S3)C[C@H](C)O1 (max concentration tested 25000 nM)	7.43
N#CC1(c2ccc(NC(=O)c3cccnc3NCc3ccncc3)cc2)CCCC1 [Apatinib] (max concentration tested 10000 nM)	0
N#Cc1ccc2[nH]c(O)c(-c3ccc(CN4CCOCC4)cn3)c2c1 [AZD-1080] (max concentration tested 10000 nM)	0.66
Cn1c(Nc2ccc(C(F)(F)F)cc2)nc2cc(Oc3ccnc(-c4ncc(C(F)(F)F)[nH]4)c3)ccc21 [RAF265] (max concentration tested 1000 nM)	2.71
CO[C@@H](C(=O)N1Cc2[nH]nc(NC(=O)c3ccc(N4CCN(C)CC4)cc3)c2C1)c1ccccc1 [Danusertib] (max concentration tested 10000 nM)	6.51
CCn1c(C(=O)N(C2CC2)C2CC2)cc2c3c(ncn3C)c(Nc3cc(C)n(C)n3)nc21 (max concentration tested 10000 nM)	8.84
CCCCCCCCc1ccc(CCC(N)(CO)CO)cc1 [Fingolimod] (max concentration tested 10000 nM)	9.92
Nc1ccccc1NC(=O)c1ccc(CNc2nccc(-c3cccnc3)n2)cc1 [Mocetinostat] (max concentration tested 10000 nM)	21.4
NC(=O)c1cccc(-c2cccc(OC(=O)NC3CCCCC3)c2)c1 [URB597] (max concentration tested 1000 nM)	2.41
CCc1cnn2c(NCc3ccc[n+]([O-])c3)cc(N3CCCC[C@H]3CCO)nc12 [Dinaciclib] (max concentration tested 1000 nM)	28.8
CNC(=O)c1ccc2cc([C@@]3(O)CCn4cncc43)ccc2c1 [Orteronel] (max concentration tested 10000 nM)	0
O=C(NOCCO)c1ccc2cncn2c1Nc1ccc(I)cc1F [GDC-0623] (max concentration tested 2500 nM)	16.7
C[C@@H]1C[C@H]2[C@@H]3CCC4=CC(=O)C=C[C@]4(C)[C@@]3(F)[C@@H](O)C[C@]2(C)[C@@]1(O)C(=O)CO [Dexamethasone] (max concentration tested 10000 nM)	24.6
COc1cc(CCc2cc(NC(=O)c3ccc(N4CC(C)NC(C)C4)cc3)n[nH]2)cc(OC)c1 (stereo not given) [AZD4547] (max concentration tested 1000 nM)	4.12
Nc1nc(Nc2ccc3c(c2)CC[C@@H](N2CCCC2)CC3)nn1-c1cc2c(nn1)-c1ccccc1CCC2 [BGB324] (max concentration tested 10000 nM)	14.8
CN(C)CCN1C(=O)c2cccc3cc(N)cc(c23)C1=O [Amonafide] (max concentration tested 10000 nM)	9.52
CC(C)N(C[C@H]1O[C@@H](n2cnc3c(N)ncnc32)[C@H](O)[C@@H]1O)[C@H]1C[C@@H](CCc2nc3cc(C(C)(C)C)ccc3[nH]2)C1 [EPZ-5676] (max concentration tested 1000 nM)	3.3
NC1(c2ccc(-c3nc4ccn5c(=O)[nH]nc5c4cc3-c3ccccc3)cc2)CCC1 [MK-2206] (max concentration tested 1000 nM)	0
Nc1nc(OCc2cc(Br)cs2)c2[nH]cnc2n1 [Lomeguatrib] (max concentration tested 10000 nM)	4.14
CCC1(c2ccc(N)cc2)CCC(=O)NC1=O (stereo not given) [Aminoglutethimide] (max concentration tested 10000 nM)	0.06
O=C(O)CC[C@H]1CC[C@@](c2cc(F)ccc2F)(S(=O)(=O)c2ccc(Cl)cc2)CC1 [MK-0752] (max concentration tested 1000 nM)	0
O=P1(NCCCl)OCCCN1CCCl (stereo not given) [Ifosfamide] (max concentration tested 10000 nM)	0
Cc1cc2c(F)c(Oc3ncnn4cc(OC[C@@H](C)O)c(C)c34)ccc2[nH]1 [Brivanib] (max concentration tested 1000 nM)	0
CCC(C)(C)C(=O)O[C@H]1C[C@@H](C)C=C2C=C[C@H](C)[C@H](CC[C@@H]3C[C@@H](O)CC(=O)O3)[C@H]21 [Simvastatin] (max concentration tested 10000 nM)	4.74

====

Tested on: DERL-7 (IL-2 2.5 ng/mL)
protocol.text: percent inhibition of viability; higher = more inhibition
condition.parameters: 72 h; 1000 nM

compound	system.name	percent inhibition of viability / %
O=C(O)CC[C@H]1CC[C@@](c2cc(F)ccc2F)(S(=O)(=O)c2ccc(Cl)cc2)CC1 [MK-0752] (max concentration tested 1000 nM)	DERL-7 (IL-2 2.5 ng/mL)	0.38
CN(C)CCN1C(=O)c2cccc3cc(N)cc(c23)C1=O [Amonafide] (max concentration tested 10000 nM)	DERL-7 (IL-2 2.5 ng/mL)	19.6
C[C@]12C=CC(=O)C=C1CC[C@@H]1[C@@H]2[C@@H](O)C[C@@]2(C)[C@H]1CC[C@]2(O)C(=O)CO [Prednisolone] (max concentration tested 10000 nM)	DERL-7 (IL-2 2.5 ng/mL)	98
Cc1c(N)nc([C@H](CC(N)=O)NC[C@H](N)C(N)=O)nc1C(=O)N[C@H](C(=O)N[C@H](C)[C@@H](O)[C@H](C)C(=O)N[C@H](C(=O)NCCc1nc(-c2nc(C(=O)NCCC[S+](C)C)cs2)cs1)[C@@H](C)O)[C@@H](OC1OC(CO)C(O)C(O)C1OC1OC(CO)C(O)C(OC(N)=O)C1O)c1cnc[nH]1 (stereo partly specified) [Bleomycin] (max concentration tested 10000 nM)	DERL-7 (IL-2 2.5 ng/mL)	29.5
CC/C(=C(\c1ccc(O)cc1)c1ccc(OCCN(C)C)cc1)c1ccccc1 [4-hydroxytamoxifen] (max concentration tested 10000 nM)	DERL-7 (IL-2 2.5 ng/mL)	16.8
Cn1ncnc1[C@H]1c2n[nH]c(=O)c3cc(F)cc(c23)N[C@@H]1c1ccc(F)cc1 [Talazoparib] (max concentration tested 1000 nM)	DERL-7 (IL-2 2.5 ng/mL)	37.8
NC(=O)NO [Hydroxyurea] (max concentration tested 100000 nM)	DERL-7 (IL-2 2.5 ng/mL)	8.03
COc1cccc2c1C(=O)c1c(O)c3c(c(O)c1C2=O)C[C@@](O)(/C(CO)=N/NC(=O)CCCCCN1C(=O)C=CC1=O)C[C@@H]3O[C@H]1C[C@H](N)[C@H](O)[C@H](C)O1 [Aldoxorubicin] (max concentration tested 1000 nM)	DERL-7 (IL-2 2.5 ng/mL)	101
COc1cc(CCc2cc(NC(=O)c3ccc(N4CC(C)NC(C)C4)cc3)n[nH]2)cc(OC)c1 (stereo unspecified) [AZD4547] (max concentration tested 1000 nM)	DERL-7 (IL-2 2.5 ng/mL)	5.77
O=C(O)CCCc1ccc(N(CCCl)CCCl)cc1 [Chlorambucil] (max concentration tested 10000 nM)	DERL-7 (IL-2 2.5 ng/mL)	2.26
CC(C)[C@H](C(=O)Nc1ccc(C(=O)NO)cc1)c1ccccc1 [AR-42] (max concentration tested 10000 nM)	DERL-7 (IL-2 2.5 ng/mL)	100
NS(=O)(=O)OC[C@@H]1C[C@@H](n2ccc3c(N[C@H]4CCc5ccccc54)ncnc32)C[C@@H]1O [Pevonedistat] (max concentration tested 10000 nM)	DERL-7 (IL-2 2.5 ng/mL)	91.5
O=C(CCCCCCNC(=O)c1cnc(N(c2ccccc2)c2ccccc2)nc1)NO [Rocilinostat] (max concentration tested 10000 nM)	DERL-7 (IL-2 2.5 ng/mL)	14.9
Nc1nc(OCc2cc(Br)cs2)c2[nH]cnc2n1 [Lomeguatrib] (max concentration tested 10000 nM)	DERL-7 (IL-2 2.5 ng/mL)	0.21
COC(=O)N[C@@H](C)CNc1nccc(-c2cn(C(C)C)nc2-c2cc(Cl)cc(NS(C)(=O)=O)c2F)n1 [Encorafenib] (max concentration tested 1000 nM)	DERL-7 (IL-2 2.5 ng/mL)	2.89
Cc1ccc(-n2nc(C(C)(C)C)cc2NC(=O)Nc2ccc(OCCN3CCOCC3)c3ccccc23)cc1 [Doramapimod] (max concentration tested 10000 nM)	DERL-7 (IL-2 2.5 ng/mL)	0.4
O=C(CCCCCCC(=O)Nc1ccccc1)NO [Vorinostat] (max concentration tested 10000 nM)	DERL-7 (IL-2 2.5 ng/mL)	72
CCc1cnn2c(NCc3ccc[n+]([O-])c3)cc(N3CCCC[C@H]3CCO)nc12 [Dinaciclib] (max concentration tested 1000 nM)	DERL-7 (IL-2 2.5 ng/mL)	101
Cn1c(Nc2ccc(C(F)(F)F)cc2)nc2cc(Oc3ccnc(-c4ncc(C(F)(F)F)[nH]4)c3)ccc21 [RAF265] (max concentration tested 1000 nM)	DERL-7 (IL-2 2.5 ng/mL)	46.9
CC(C)n1cnc2c(NCCc3ccc(O)cc3)nc(-c3csc4ccccc34)nc21 [StemRegenin 1] (max concentration tested 10000 nM)	DERL-7 (IL-2 2.5 ng/mL)	71.1
CO[C@H](C(=O)[C@@H](O)[C@@H](C)O)[C@@H]1Cc2cc3cc(O[C@H]4C[C@@H](O[C@@H]5C[C@@H](O)[C@H](O)[C@@H](C)O5)[C@H](O)[C@@H](C)O4)c(C)c(O)c3c(O)c2C(=O)[C@H]1O[C@H]1C[C@@H](O[C@@H]2C[C@@H](O)[C@@H](O[C@@H]3C[C@](C)(O)[C@H](O)[C@@H](C)O3)[C@@H](C)O2)[C@H](O)[C@@H](C)O1 [Plicamycin] (max concentration tested 10000 nM)	DERL-7 (IL-2 2.5 ng/mL)	101
